Data provenance: the supplement of paper PMC6757056

B1: library; a variant is named by its letters at N, in order (parent)
chain: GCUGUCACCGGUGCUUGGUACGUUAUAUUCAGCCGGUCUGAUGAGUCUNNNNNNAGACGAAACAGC

Variants of: B1
measurement notes: normalized RNA/DNA level without ligand (relative to sTRSVctl = 100) (log10 (% of sTRSVctl)); HEK293T overexpressing SLC46A1; higher = less ribozyme self-cleavage, higher mRNA level
conditions used: without (6R,S)-folinic acid; ligand present: no
attribute measured: normalized RNA/DNA level without ligand (log10)
One number for each entry.

QUERY: What value of normalized RNA/DNA level without ligand (log10) has been recorded for this entry: GCUGUCACCGGUGCUUGGUACGUUAUAUUCAGCCGGUCUGAUGAGUCUAGGUCCAGACGAAACAGC
RESULT: 2.04

QUERY: What value of normalized RNA/DNA level without ligand (log10) has been recorded for this entry: GCUGUCACCGGUGCUUGGUACGUUAUAUUCAGCCGGUCUGAUGAGUCUGGAUCUAGACGAAACAGC
RESULT: 2.04

QUERY: What value of normalized RNA/DNA level without ligand (log10) has been recorded for this entry: GCUGUCACCGGUGCUUGGUACGUUAUAUUCAGCCGGUCUGAUGAGUCUUCCCCCAGACGAAACAGC
RESULT: 2.06

QUERY: What value of normalized RNA/DNA level without ligand (log10) has been recorded for this entry: GCUGUCACCGGUGCUUGGUACGUUAUAUUCAGCCGGUCUGAUGAGUCUCCGGAUAGACGAAACAGC
RESULT: 2.02

QUERY: What value of normalized RNA/DNA level without ligand (log10) has been recorded for this entry: GCUGUCACCGGUGCUUGGUACGUUAUAUUCAGCCGGUCUGAUGAGUCUGAAAGCAGACGAAACAGC
RESULT: 1.97

QUERY: What value of normalized RNA/DNA level without ligand (log10) has been recorded for this entry: GCUGUCACCGGUGCUUGGUACGUUAUAUUCAGCCGGUCUGAUGAGUCUAAGAGGAGACGAAACAGC
RESULT: 1.84

QUERY: What value of normalized RNA/DNA level without ligand (log10) has been recorded for this entry: GCUGUCACCGGUGCUUGGUACGUUAUAUUCAGCCGGUCUGAUGAGUCUUCUAGUAGACGAAACAGC
RESULT: 1.98

QUERY: What value of normalized RNA/DNA level without ligand (log10) has been recorded for this entry: GCUGUCACCGGUGCUUGGUACGUUAUAUUCAGCCGGUCUGAUGAGUCUUCUGGCAGACGAAACAGC
RESULT: 2.03

Batch: normalized RNA/DNA level without ligand (log10) for all items listed.
1. GCUGUCACCGGUGCUUGGUACGUUAUAUUCAGCCGGUCUGAUGAGUCUAGGAUGAGACGAAACAGC
2. GCUGUCACCGGUGCUUGGUACGUUAUAUUCAGCCGGUCUGAUGAGUCUCAUAAGAGACGAAACAGC

RESULT:
1.92
1.95

Batch: normalized RNA/DNA level without ligand (log10) for all items listed.
1. GCUGUCACCGGUGCUUGGUACGUUAUAUUCAGCCGGUCUGAUGAGUCUUAGAUGAGACGAAACAGC
2. GCUGUCACCGGUGCUUGGUACGUUAUAUUCAGCCGGUCUGAUGAGUCUCGUCAAAGACGAAACAGC
3. GCUGUCACCGGUGCUUGGUACGUUAUAUUCAGCCGGUCUGAUGAGUCUCGUUGAAGACGAAACAGC
4. GCUGUCACCGGUGCUUGGUACGUUAUAUUCAGCCGGUCUGAUGAGUCUCCCCAAAGACGAAACAGC
5. GCUGUCACCGGUGCUUGGUACGUUAUAUUCAGCCGGUCUGAUGAGUCUCUGGAAAGACGAAACAGC
6. GCUGUCACCGGUGCUUGGUACGUUAUAUUCAGCCGGUCUGAUGAGUCUCGGCCAAGACGAAACAGC
7. GCUGUCACCGGUGCUUGGUACGUUAUAUUCAGCCGGUCUGAUGAGUCUUGAACAAGACGAAACAGC
8. GCUGUCACCGGUGCUUGGUACGUUAUAUUCAGCCGGUCUGAUGAGUCUUGAGGGAGACGAAACAGC

RESULT:
1.7
1.98
2.01
2.02
1.92
2.11
1.98
1.66
